Recorded speed of sound, one value per entry.
Conditions: 318.15 K; 101.33 kPa; Liquid; Pulse-echo method

>  <compound>
CC(C)C[P+](C)(CC(C)C)CC(C)C.Cc1ccc(S(=O)(=O)[O-])cc1 [triisobutylmethylphosphonium p-toluenesulfonate]

>  <speed of sound, m/s>
1551.1

$$$$
>  <compound>
CCCCn1cc[n+](C)c1.F[P-](F)(F)(F)(F)F [1-butyl-3-methylimidazolium hexafluorophosphate]

>  <speed of sound, m/s>
1396.9

$$$$
>  <compound>
CCCCCCn1cc[n+](C)c1.F[P-](F)(F)(F)(F)F [1-hexyl-3-methylimidazolium hexafluorophosphate]

>  <speed of sound, m/s>
1374.9

$$$$
>  <compound>
CCCCCCCC[n+]1ccn(C)c1.[Cl-] [1-methyl-3-octylimidazolium chloride]

>  <speed of sound, m/s>
1597.1

$$$$
>  <compound>
CCCC[n+]1ccc(C)cc1.F[B-](F)(F)F [1-butyl-4-methylpyridinium tetrafluoroborate]

>  <speed of sound, m/s>
1553.2

$$$$
>  <compound>
COS(=O)(=O)[O-].Cn1cc[n+](C)c1 [1,3-dimethylimidazolium methylsulfate]

>  <speed of sound, m/s>
1763.6

$$$$
>  <compound>
CCCCCCCC[n+]1ccn(C)c1.F[P-](F)(F)(F)(F)F [1-octyl-3-methylimidazolium hexafluorophosphate]

>  <speed of sound, m/s>
1351

$$$$
>  <compound>
CCCCn1cc[n+](C)c1.O=S(=O)([O-])O [1-butyl-3-methylimidazolium hydrogen sulfate]

>  <speed of sound, m/s>
1640.2

$$$$
>  <compound>
CCn1cc[n+](C)c1.COS(=O)(=O)[O-] [1-ethyl-3-methylimidazolium methylsulfate]

>  <speed of sound, m/s>
1715.5

$$$$
